FYI, the data here is from PubChem BioAssay AID1159580.

As shown below, each of these compounds has a reported normalized growth value.
assay: chemical genetic growth profiling, strain panel (AID 1159580);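 further: tested at 20 µM; growth read once vehicle control cultures reached saturation at 30 °C; 1 = growth at the plate median or of vehicle wells; lower values mean less growth of the strain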; details: S. cerevisiae deletion strains, growth OD, locus YPL256C, strain CLN2, active compounds read low
In all, about 5,500 compounds went through this assay and about 2,000 (36%) were called active. Another 18% or so got no clear call; they are omitted. The list shows a part of the results.
Reply with just the number.

Below are worked cases with known answers.
>>> df
                                   compound             metric  measured_result
0  Cc1nn(Cc2nnc(SCc3cccc(C(F)(F)F)c3)o2)c(C)c1Br  normalized growth            0.965
1  C[C@]12C=CC(=O)C=C1CCC1C3C[C@@H](O)[C@](O)(C(=O)CO)[C@@]3(C)C[C@H](O)[C@@]12F (some centres not stated)  normalized growth            0.973
2  CSc1ccc2c(c1)N(CCC1CCCCN1C)c1ccccc1S2 (configuration not stated)  normalized growth            0.975
3  NCC(CC(=O)O)c1ccc(Cl)cc1 (configuration not stated)  normalized growth             1.08

INPUT: What measured normalized growth goes with CN(C)CCOC(=O)COc1ccc(Cl)cc1 ?
OUTPUT: 1.1

INPUT: What measured normalized growth goes with CSC(=NNc1ccccc1)NC(=O)c1c(Cl)cccc1Cl ?
OUTPUT: 0.814

INPUT: What measured normalized growth goes with NC(=O)c1ncn(C2O[C@H](CO)[C@@H](O)[C@H]2O)c1N (some centres not stated) ?
OUTPUT: 0.982

INPUT: What measured normalized growth goes with Cc1onc(-c2ccccc2)c1C(=O)Sc1ccc(C(F)(F)F)cn1 ?
OUTPUT: 0.209

INPUT: What measured normalized growth goes with NNCCc1ccccc1 ?
OUTPUT: 0.958

INPUT: What measured normalized growth goes with Nc1cc(C(Cl)=C(Cl)Cl)c(S(N)(=O)=O)cc1S(N)(=O)=O ?
OUTPUT: 0.964

INPUT: What measured normalized growth goes with O=C(O)CCC(=O)Nc1ccc(S(=O)(=O)Nc2nccs2)cc1 ?
OUTPUT: 1.01

INPUT: What measured normalized growth goes with CN(C(=O)CN(CCO)CC(=O)N(C)C(C)(C)Cc1ccccc1)C(C)(C)Cc1ccccc1 ?
OUTPUT: 0.98

---

As shown below, each of these molecules has a reported normalized growth value.
experiment: chemical genetic growth profiling, strain panel (AID 1159580);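 further: tested at 20 µM; growth read once vehicle control cultures reached saturation at 30 °C; 1 = growth at the plate median or of vehicle wells; lower values mean less growth of the strain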; conditions: S. cerevisiae deletion strains, growth OD, locus YDR392W, strain spt3, active compounds read low
Hit rate of the full screen: of about 5,500 compounds, about 2,000 (36%) were called active. Inconclusive results (about 18%) are left out. The list shows a part of the results.

Below are worked cases with known answers.
>>> print(df.to_string())
                                   molecule             metric   measured_result
0  COc1cc([C@@H]2c3cc4c(cc3[C@H](OC(C)=O)[C@H]3COC(=O)[C@@H]23)OCO4)cc(OC)c1OC  normalized growth  0.998 (inactive)
1  O=C(O)CCC(=O)Nc1ccc(S(=O)(=O)Nc2nccs2)cc1  normalized growth  0.912 (inactive)
2  NC(Cc1ccc(F)cc1)C(=O)O (stereo unspecified)  normalized growth  0.923 (inactive)

INPUT: What measured normalized growth goes with CCCC(C(=O)OCCN(CC)CC)(c1ccccc1)c1ccccc1 ?
OUTPUT: 0.962 (inactive)

INPUT: What measured normalized growth goes with CCN(CC)C(C)CN1c2ccccc2Sc2ccccc21 (stereo unspecified) ?
OUTPUT: 0.911 (inactive)

INPUT: What measured normalized growth goes with CCCCCC1C(=O)CCC1CC(=O)OC (stereo unspecified) ?
OUTPUT: 0.975 (inactive)

INPUT: What measured normalized growth goes with CNC(=O)Oc1ccc2c(c1)[C@]1(C)CCN(C)[C@@H]1N2C ?
OUTPUT: 0.816 (inactive)

INPUT: What measured normalized growth goes with CC(CN1c2ccccc2Sc2ccccc21)N(C)C (stereo unspecified) ?
OUTPUT: 1.07 (inactive)

INPUT: What measured normalized growth goes with CN(C)CCC(c1ccc(Br)cc1)c1ccccn1 (stereo unspecified) ?
OUTPUT: 0.997 (inactive)

INPUT: What measured normalized growth goes with O=c1[nH]cnc2[nH]ncc12 ?
OUTPUT: 0.966 (inactive)

INPUT: What measured normalized growth goes with C[C@]12C=CC(=O)C=C1CCC1C3C[C@@H](O)[C@](O)(C(=O)CO)[C@@]3(C)C[C@H](O)[C@@]12F (stereo partly specified) ?
OUTPUT: 0.896 (inactive)

---

assay: chemical genetic growth profiling, strain panel (AID 1159580);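 further: tested at 20 µM; growth read once vehicle control cultures reached saturation at 30 °C; 1 = growth at the plate median or of vehicle wells; lower values mean less growth of the strain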; details: S. cerevisiae deletion strains, growth OD, locus YBR279W, strain paf1, active compounds read low
Hit rate of the full screen: of about 5,500 compounds, about 2,000 (36%) were called active. Inconclusive results (about 18%) are left out. This is one part of the list.
Metric: normalized growth
Reply with just the number.

Below are worked cases with known answers.
>>> print(df.to_string())
                                   molecule             metric  measured_result
0                  COc1c(Cl)ccc(Cl)c1C(=O)O  normalized growth            0.982
1  CC(CN(C)C)CN1c2ccccc2Sc2ccccc21 (stereo not given)  normalized growth             1.02
2                  CN(C)N=Nc1nc[nH]c1C(N)=O  normalized growth            0.966
3               CN(C)CCOC(=O)COc1ccc(Cl)cc1  normalized growth            0.987
4  OC[C@H]1OC([S-])[C@H](O)[C@@H](O)[C@@H]1O.[Au+] (stereo not given in full)  normalized growth             1.01
5  NCC(CC(=O)O)c1ccc(Cl)cc1 (stereo not given)  normalized growth            0.994
6  CCN(CC)C(C)CN1c2ccccc2Sc2ccccc21 (stereo not given)  normalized growth            0.896
7                CNCCCN1c2ccccc2CCc2ccccc21  normalized growth            0.996
8  CN(C)CCC(c1ccc(Br)cc1)c1ccccn1 (stereo not given)  normalized growth            0.976
9  CC1(C)C(O)CC(O)C2(C)C1CC(O)C1(C)C2CCC2(C)C(c3ccoc3)OC(=O)C3OC321 (stereo not given)  normalized growth            0.992

INPUT: What measured normalized growth goes with CN(C)CCOC(=O)C(c1ccccc1)C1(O)CCCC1 (stereo not given) ?
OUTPUT: 0.992

INPUT: What measured normalized growth goes with COc1c2ccoc2nc2c(OC)c(OCC(O)C(C)(C)O)ccc12 (stereo not given) ?
OUTPUT: 1.01

INPUT: What measured normalized growth goes with N[C@@H]1[C@@H](O)[C@H](O)[C@@H](CO)O[C@H]1O ?
OUTPUT: 1.03

INPUT: What measured normalized growth goes with CC(CN(C)C)CN1c2ccccc2CCc2ccccc21 (stereo not given) ?
OUTPUT: 0.988

INPUT: What measured normalized growth goes with O=C(O)CCCOc1ccc(Cl)cc1Cl ?
OUTPUT: 0.962

---

experiment: chemical genetic growth profiling, strain panel (AID 1159580);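 further: tested at 20 µM; growth read once vehicle control cultures reached saturation at 30 °C; 1 = growth at the plate median or of vehicle wells; lower values mean less growth of the strain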; conditions: S. cerevisiae deletion strains, growth OD, locus YMR277W, strain FCP1, active compounds read low
About 2,000 (36%) of roughly 5,500 compounds were called active. Another 18% or so got no clear call; they are omitted. The list shows a part of the results.
Metric: normalized growth
Reply with just the number.

                          entry_smiles  measured_result
0  S=C(Nc1cc(Cl)c(Cl)cc1Cl)Nc1ccccc1Br            0.959

INPUT: What measured normalized growth goes with O=[N+]([O-])c1ccc(-c2csc(Nc3ccncc3)n2)cc1 ?
OUTPUT: 0.989

INPUT: What measured normalized growth goes with CS(=O)(=O)c1sc(C(=O)Sc2ccc(Cl)cc2)c2c1C=CCC2 ?
OUTPUT: 0.838

INPUT: What measured normalized growth goes with Cc1onc(-c2ccccc2)c1C(=O)Sc1ccc(C(F)(F)F)cn1 ?
OUTPUT: 0.943

INPUT: What measured normalized growth goes with O=C(Nc1ccc(Cl)cc1)O/N=C\c1ccn(-c2ccccc2)n1 ?
OUTPUT: 0.948

INPUT: What measured normalized growth goes with Cc1ccc(S(=O)(=O)Nc2ccc(Oc3ccc(F)cc3)cc2)cc1 ?
OUTPUT: 0.985

INPUT: What measured normalized growth goes with CSC(=NNc1ccccc1)NC(=O)c1c(Cl)cccc1Cl ?
OUTPUT: 0.975

INPUT: What measured normalized growth goes with O=S(=O)(Nc1ccc(Oc2ccc(OC(F)(F)F)cc2)cc1)c1cccc(Cl)c1 ?
OUTPUT: 0.983

INPUT: What measured normalized growth goes with S=C(NNc1ccccc1)Nc1cc(Cl)ccc1Cl ?
OUTPUT: 0.957

INPUT: What measured normalized growth goes with O=C(Nc1cccc2ccccc12)c1ccccc1O ?
OUTPUT: 0.839

INPUT: What measured normalized growth goes with COc1ccc(OC)c(-c2ccn[nH]2)c1OCc1ccccc1 ?
OUTPUT: 0.993
